Could you please report measured TGI for the items listed next?
tested on: SK-OV-3 ovarian; assay: NCI tumour cell line growth inhibition, 48 h

// query Quick check: TGI on SK-OV-3 ovarian, item `O=C(N[C@@H](c1ccccc1)[C@@H](O)C(=O)OCc1ccc([N+](=O)[O-])cc1)c1ccccc1` ?
// result > 100 µM

// query GET /values?readout=TGI&system=SK-OV-3 ovarian&item= `CN1C(=O)/C(=C/c2c(Cl)n(C)c3ccccc23)c2ccccc21`
// result 2.91 µM

// query Enter reported TGI observed with SK-OV-3 ovarian for `CC(C)C(=O)NS(=O)(=O)c1ccccc1`
// result > 100 µM

// query Notebook entry, SK-OV-3 ovarian assay: TGI of `C/C(CC(=O)Nc1cccc(Cl)c1C)=N\NC(=O)c1ccncc1` = ?
// result > 100 µM

// query Notebook: pull reported TGI for SK-OV-3 ovarian, entry `COc1cc2c3c(n(CCCOC(=O)C(F)(F)F)c(=O)c2cc1OC)-c1cc2c(cc1C3=O)OCO2`
// result > 100 µM

----------
test system: EKVX NSCLC; test: NCI tumour cell line growth inhibition, 48 h
Give TGI for every item shown.
State just the number; it will be interpreted in µM.

// query What does the data say about its TGI? Entry: `COc1cc(O)c(C(=O)/C=C/c2ccc(O)cc2)cc1Oc1ccc(/C=C/C(=O)c2ccc(O)cc2O)cc1`
// result 27.7

// query Name the recorded TGI for CC1C[C@]2(C)C(=NCCN)Nc3ccccc3[C@@H]2N(C)c2ccccc21 (some centres undefined) .
// result 33

// query TGI value for entry `CC(C)N(C(=O)C1(O)c2ccccc2C=Cc2ccccc21)C(C)C`
// result 32.5

// query Bench note: what TGI did `O=C(c1cccs1)N(C(=O)N1CCN(c2ccccc2)CC1)S(=O)(=O)c1ccccc1` show?
// result 42.3

----------
Would you kindly list TGI for each of these compounds?
system: OVCAR-4 ovarian; experiment: NCI tumour cell line growth inhibition, 48 h

// query I would be grateful if you could share the reported TGI for `CNC(=S)N=Nc1c(O)n(CN2CCOCC2)c2ccc([N+](=O)[O-])cc12` .
// result 31.2 µM

// query Please give the measured TGI for this compound: CC1=C(C(=O)Nc2ccc(Cl)c(Cl)c2)C(c2cccc(Oc3ccccc3)c2)NC(=O)N1 (stereo not given)
// result > 50 µM

// query TGI for `CC(=O)Oc1ccc2c(c1)c1c(=O)oc(C)nc1n2Cc1ccccc1` ?
// result > 100 µM

// query For `CN1C(=O)CSC1=S` , what is its reported TGI?
// result > 100 µM

// query Which TGI is listed for `CCC(=O)O[C@H]1CC[C@H]2[C@@H]3CCC4=C/C(=N/OC(=O)c5cccc6c(=O)c7ccccc7[nH]c56)CC[C@]4(C)[C@H]3CC[C@]12C` ?
// result > 100 µM

// query I am curious: what TGI value has been reported for `O=C(Nc1nncs1)NS(=O)(=O)n1c(=S)sc2ccccc21` ?
// result > 100 µM

// query Fill in: TGI of `O=C(O)c1nc2ccc(C(F)(F)F)cc2nc1NCc1ccc(F)cc1` is ___
// result > 100 µM

// query Using the record for `O=C1NC(=O)C(c2c[nH]c3ccccc23)=C1c1cn(C(c2ccccc2)(c2ccccc2)c2ccccc2)cn1` , report its TGI.
// result 17.5 µM

// query Endpoint output: TGI of CCOC(=O)C1(C/C=C/CBr)CCc2ccccc2C1=O (stereo not given) . Value?
// result 29.7 µM

// query Which TGI is listed for `COc1cc(N(CCC#N)CCC#N)ccc1/C(N=Nc1ccccc1C)=N\NC(=O)c1ccc(C)cc1` ?
// result > 100 µM
